Data provenance: paper PMC12466479

target: Cystathionine γ-lyase (CSE) (Rattus norvegicus, UniProt P18757); test: SSP4 fluorescence assay of Cys-SSH production from cystine after preincubation with L-CysNO; also a substrate (HSNO by TAP-1, pyruvate assay)
Sequence (P18757 whole entry): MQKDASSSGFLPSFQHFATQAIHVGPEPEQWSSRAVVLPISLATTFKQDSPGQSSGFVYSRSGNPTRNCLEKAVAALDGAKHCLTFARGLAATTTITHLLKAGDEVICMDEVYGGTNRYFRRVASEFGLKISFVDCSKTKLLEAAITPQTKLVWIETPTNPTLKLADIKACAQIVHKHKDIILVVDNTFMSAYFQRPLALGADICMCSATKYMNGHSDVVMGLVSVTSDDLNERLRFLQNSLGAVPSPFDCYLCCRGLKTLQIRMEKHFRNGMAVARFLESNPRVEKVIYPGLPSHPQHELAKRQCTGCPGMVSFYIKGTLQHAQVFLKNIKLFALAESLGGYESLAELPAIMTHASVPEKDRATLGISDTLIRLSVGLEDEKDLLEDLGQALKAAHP
Property Label: IC50 (µM)
Numbers only, in µM.

Provide measured IC50 value, entry: N[C@@H](CSN=O)C(=O)O [L-CysNO, L-S-nitrosocysteine] 10
